# target-or-system: α2β3γ2 GABAA subtype receptor (Homo sapiens, UniProt P18507+P47869)
# Sequence (P47869 29-451): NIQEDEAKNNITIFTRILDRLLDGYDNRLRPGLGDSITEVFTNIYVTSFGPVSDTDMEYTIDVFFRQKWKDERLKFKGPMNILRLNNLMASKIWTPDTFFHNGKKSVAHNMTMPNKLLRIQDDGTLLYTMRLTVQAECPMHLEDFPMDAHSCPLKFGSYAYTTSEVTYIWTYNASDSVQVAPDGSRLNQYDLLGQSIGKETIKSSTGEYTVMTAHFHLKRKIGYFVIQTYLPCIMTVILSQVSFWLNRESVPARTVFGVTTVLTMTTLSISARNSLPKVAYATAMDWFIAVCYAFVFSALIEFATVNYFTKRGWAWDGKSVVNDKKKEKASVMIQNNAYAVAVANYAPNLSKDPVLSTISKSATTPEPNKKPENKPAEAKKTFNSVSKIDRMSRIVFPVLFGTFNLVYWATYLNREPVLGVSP
# Sequence (P28472 26-473 partner): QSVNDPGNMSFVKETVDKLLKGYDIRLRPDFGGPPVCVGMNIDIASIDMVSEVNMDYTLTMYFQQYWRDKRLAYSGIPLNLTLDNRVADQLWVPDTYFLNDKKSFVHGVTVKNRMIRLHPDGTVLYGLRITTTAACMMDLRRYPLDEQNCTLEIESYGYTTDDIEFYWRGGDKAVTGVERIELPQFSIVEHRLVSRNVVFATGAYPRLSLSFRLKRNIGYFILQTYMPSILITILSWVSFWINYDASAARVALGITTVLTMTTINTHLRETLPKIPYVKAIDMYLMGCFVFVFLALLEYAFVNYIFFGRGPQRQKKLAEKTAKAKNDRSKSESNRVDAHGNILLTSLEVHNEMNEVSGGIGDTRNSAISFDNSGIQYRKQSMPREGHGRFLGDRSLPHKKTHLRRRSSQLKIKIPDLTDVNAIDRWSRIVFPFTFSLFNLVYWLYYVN
# Sequence (P18507 40-475): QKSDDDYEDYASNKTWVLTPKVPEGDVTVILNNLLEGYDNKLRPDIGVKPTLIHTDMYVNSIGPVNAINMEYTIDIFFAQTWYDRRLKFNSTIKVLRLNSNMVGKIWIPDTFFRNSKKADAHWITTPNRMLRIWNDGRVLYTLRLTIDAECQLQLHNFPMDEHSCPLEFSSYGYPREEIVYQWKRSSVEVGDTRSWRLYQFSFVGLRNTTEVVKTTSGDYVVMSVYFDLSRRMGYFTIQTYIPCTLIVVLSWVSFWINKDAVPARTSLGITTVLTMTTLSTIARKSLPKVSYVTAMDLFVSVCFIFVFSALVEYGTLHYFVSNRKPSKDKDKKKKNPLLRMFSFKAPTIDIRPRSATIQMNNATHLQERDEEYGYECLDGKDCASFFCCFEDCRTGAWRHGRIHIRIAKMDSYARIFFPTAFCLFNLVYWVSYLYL
# method-description: cell-based
# assay-conditions: oocyte electrophysiology EC50 α2β3γ2, Xenopus laevis oocytes, human subunits, GABA at EC10
readout-kind: log10(EC50) (log10 of the value in nM)
Values reflect log10 of reported EC50 (nM).

Past entries and their recorded results:
compound: O=C(Nc1ccccc1)c1c[nH]c2c1C(=O)CCCC2 [compound 13]
readout-kind: log10(EC50)
numeric-result: 1.72

compound: COc1ccc(F)c(-c2ncc3[nH]c4c(c3n2)CCCC4)c1 [compound 11]
readout-kind: log10(EC50)
numeric-result: 1.98

# input Entry O=c1[nH]c2c(n1-c1nc3ccc(F)c(F)c3o1)CCCCC2 [compound 7] has what log10(EC50)?
# output 0.60

# input Any idea what log10(EC50) was measured for O=C(Nc1cccc(F)c1)c1c[nH]c2c(c1=O)CCC2 [compound 5] ?
# output 0.95

# input Find the recorded log10(EC50) belonging to O=c1c(-c2ccccc2F)nc2c[nH]c3ccccc3n1-2 [compound 2] and report it.
# output 1.08
